- TEST_SUMMARY: Antiproliferative activity against human 786-O cells incubated for 72 hrs by MTT assay
- Assay type: functional, cell-based
- SETTINGS: 786-0, 72 h
ENDPOINT_NAME: IC50

Study these solved cases before continuing.
{"COMPOUND": "COc1ccc2c(c1)C(=O)c1c-2c(N2CCNCC2)nc2ccccc12", "RESULT": "12.5 µM"}
{"COMPOUND": "COc1ccc2c(c1)C(=O)c1c-2c(N2CCN(C(=O)CCNCCN(C)C)CC2)nc2ccccc12", "RESULT": "7.03 µM"}
{"COMPOUND": "COc1ccc2c(c1)C(=O)c1c-2c(N2CCN(CC3CO3)CC2)nc2ccccc12 (centres undefined)", "RESULT": "19.1 µM"}
{"COMPOUND": "COc1ccc2c(c1)C(=O)c1c-2c(N2CCN(C(=O)CNCCN(C)C)CC2)nc2ccccc12", "RESULT": "9.37 µM"}
{"COMPOUND": "CNCC(O)CN1CCN(c2nc3ccccc3c3c2-c2ccc(OC)cc2C3=O)CC1 (centres undefined)", "RESULT": "6.4 µM"}
{"COMPOUND": "CNCCC(=O)N1CCN(c2nc3ccccc3c3c2-c2ccc(OC)cc2C3=O)CC1", "RESULT": "6 µM"}

Which IC50 is listed for COc1ccc2c(c1)C(=O)c1c-2c(N2CCN(C(=O)CCN(C)C)CC2)nc2ccccc12 ?
11.5 µM

Which IC50 is listed for COc1ccc2c(c1)/C(=N\O)c1c-2c(N2CCNCC2)nc2ccccc12 ?
1.2 µM

Which IC50 is listed for COc1ccc2c(c1)C(=O)c1c-2c(N2CCN(C(=O)CN3CCOCC3)CC2)nc2ccccc12 ?
> 30 µM

Which IC50 is listed for COc1ccc2c(c1)/C(=N\OCC1CO1)c1c-2c(N2CCN(CC3CO3)CC2)nc2ccccc12 (centres undefined) ?
8.8 µM

Which IC50 is listed for COc1ccc2c(c1)C(=O)c1c-2c(N2CCN(C(=O)CCNCCO)CC2)nc2ccccc12 ?
2.03 µM

Which IC50 is listed for CNCC(=O)N1CCN(c2nc3ccccc3c3c2-c2ccc(OC)cc2C3=O)CC1 ?
6.2 µM

----------
Parameter: pIC50. Scope: all listed entries.
- TEST_SUMMARY: Antiproliferative activity against human 786-O cells incubated for 72 hrs by MTT assay
- Type: functional, cell-based
- SETTINGS: 786-0, 72 h
Quick note: pIC50 values are minus log10 of concentrations in mol/L.

Study these solved cases before continuing.
{"COMPOUND": "COc1ccc2c(c1)C(=O)c1c-2c(N2CCN(C(=O)CNCCO)CC2)nc2ccccc12", "pIC50": 5.17}
{"COMPOUND": "CC[C@@]1(O)C(=O)OCc2c1cc1n(c2=O)Cc2cc3ccccc3nc2-1", "pIC50": 7.82}
{"COMPOUND": "COc1ccc2c(c1)C(=O)c1c-2c(N2CCN(C(=O)CCN3CCNCC3)CC2)nc2ccccc12", "pIC50": 5.82}

Which pIC50 is listed for COc1ccc2c(c1)C(=O)c1c-2c(N2CCN(CC(O)CN(C)C)CC2)nc2ccccc12 (configuration not stated) ?
5.17

Which pIC50 is listed for COc1ccc2c(c1)C(=O)c1c-2c(N2CCN(C(=O)CNCCCN(C)C)CC2)nc2ccccc12 ?
5.00

Which pIC50 is listed for COc1ccc2c(c1)C(=O)c1c-2c(N2CCN(C(=O)CCNCCCN(C)C)CC2)nc2ccccc12 ?
5.23
